Please go through the items and note down their relative permittivity.
# Assay remarks: relative permittivity at various frequencies (dimensionless)
# Setup conditions: 308.15 K; 101.3 kPa; Liquid; Frequency=0.1 MHz; Coaxial cylinder capacitor
One number for each entry.

// worked examples, relative permittivity included
Input line: What value of relative permittivity has been recorded for this entry: C1COCCO1
Output line: 2.209

Input line: # repeat for CCCCCO
Output line: 13.72

Input line: # repeat for CC(C)CCO
Output line: 13.402

Below: the item to evaluate.
Input line: What value of relative permittivity has been recorded for this entry: OCCCCO
Output line: 29.482

###

# Setup conditions: 298.15 K; 101.33 kPa; Liquid; Vibrating tube method
Please go through the items and note down their mass density.
Give bare numbers, in kg/m3.

Below are 4 compounds. Give each one its mass density.
1. C1COCCO1
2. CC(C)CCO
3. OCCCCO
4. CCCCCO

Output line:
1. 1027.86
2. 807.16
3. 1013.4
4. 811.1

###

# Assay remarks: refractive index (Na D-line) (dimensionless)
# Setup conditions: 298.15 K; 101.3 kPa; Liquid; Standard Abbe refractometry
Please go through the items and note down their refractive index.
Answers are plain numbers.

// worked examples, refractive index included
Input line: What value of refractive index has been recorded for this entry: CCCCCO [pentan-1-ol]
Output line: 1.4082

Input line: # repeat for OCCCCO [1,4-butanediol]
Output line: 1.4445

Input line: # repeat for CC(C)CCO [3-methylbutan-1-ol]
Output line: 1.4048

Below: the item to evaluate.
Input line: What value of refractive index has been recorded for this entry: C1COCCO1 [1,4-dioxane]
Output line: 1.4202

###

# Assay remarks: relative permittivity at various frequencies (dimensionless)
# Setup conditions: 298.15 K; 101.3 kPa; Liquid; Frequency=0.1 MHz; Coaxial cylinder capacitor
Please go through the items and note down their relative permittivity.
Numbers only.

Input line: What value of relative permittivity has been recorded for this entry: OCCCCO
Output line: 31.587

Input line: # repeat for CC(C)CCO
Output line: 14.93

Input line: # repeat for C1COCCO1
Output line: 2.229

Below: the item to evaluate.
Input line: What value of relative permittivity has been recorded for this entry: CCCCCO
Output line: 15.11

###

# Assay remarks: refractive index (Na D-line) (dimensionless)
# Setup conditions: 318.15 K; 101.3 kPa; Liquid; Standard Abbe refractometry
Quantity kind: refractive index
Numbers only.

Input line: What value of refractive index has been recorded for this entry: CC(C)CCO
Output line: 1.3973

Below are 3 compounds. Give each one its refractive index.
1. CCCCCO
2. C1COCCO1
3. OCCCCO

Output line:
[1.4001, 1.4086, 1.4393]
